Target: MCH-2 (Homo sapiens)
Sequence (P55212 24-179 limits assumed): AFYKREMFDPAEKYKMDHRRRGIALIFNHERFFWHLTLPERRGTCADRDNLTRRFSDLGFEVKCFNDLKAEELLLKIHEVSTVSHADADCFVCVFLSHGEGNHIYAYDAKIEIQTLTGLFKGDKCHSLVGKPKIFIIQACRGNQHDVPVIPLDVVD
Sequence (P55212 194-293 limits assumed): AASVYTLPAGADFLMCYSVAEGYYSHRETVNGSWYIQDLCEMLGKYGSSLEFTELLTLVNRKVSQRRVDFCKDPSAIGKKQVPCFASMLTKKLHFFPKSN
Assay: Dissociation constant Ki and irreversible rate constant k3 for irreversible inhibitors, Mch2
Format: biochemical
Settings: continuous assay 60 min, reaction initiated by adding enzyme
Source text: For the irreversible inhibition of a ICE/ced-3 Family Protease enzyme with a competitive irreversible inhibitor; using the model represented by the following formulas: […] The product formation at time t may be expressed as: [formula] where E, I, EI and E-I denote the active enzyme, inhibitor, non-covalent enzyme-inhibitor complex and covalent enzyme-inhibitor adduct, respectively. […]
ASSAY METRIC: MCH-2 k3/Ki (M⁻¹ s⁻¹)

INSERT INTO measurements (molecule, unit_spec, data_value) VALUES
  ('Cc1nnc(SCC(=O)[C@H](CC(=O)O)NC(=O)[C@@H](NC(=O)COc2cccc3ccccc23)C(C)C)s1 [Example 128]', 'M⁻¹ s⁻¹', 83),
  ('CC(C)[C@H](NC(=O)COc1cccc2ccccc12)C(=O)N[C@@H](CC(=O)O)C(=O)COc1ccc(F)cc1 [Example 67]', 'M⁻¹ s⁻¹', 0),
  ('CC(C)[C@H](NC(=O)COc1cccc2ccccc12)C(=O)N[C@@H](CC(=O)O)C(=O)COc1ccccc1F [Example 65]', 'M⁻¹ s⁻¹', 0);

====

Molecular target: MCH-5 (Homo sapiens)
Experiment: Dissociation constant Ki and irreversible rate constant k3 for irreversible inhibitors, Mch5
Format: biochemical
Conditions: continuous assay 60 min, reaction initiated by adding enzyme
Measured Ki, listed per entry for reference.
ASSAY METRIC: Ki (nM)

INSERT INTO results (compound, data_value) VALUES
  ('CC(C)C[C@H](NC(=O)COc1ccccc1-c1ccccc1)C(=O)NC(CC(=O)O)C(=O)CF (mixture of isomers)', 66),
  ('CC(C)[C@H](NC(=O)COc1cccc2ccccc12)C(=O)N[C@@H](CC(=O)O)C(=O)COc1ccccc1F', 354),
  ('O=C(O)CC(NC(=O)[C@@H]1CCCCN1C(=O)COc1cccc2ccccc12)C(=O)CF (some centres unmarked)', 90),
  ('CC(C)[C@H](NC(=O)COc1cccc2ccccc12)C(=O)N[C@@H](CC(=O)O)C(=O)COP(C)(=O)c1ccc(F)cc1 (some centres unmarked)', 105),
  ('CC(C)[C@H](NC(=O)COc1cccc2ccccc12)C(=O)N[C@@H](CC(=O)O)C(=O)COc1cc(F)cc(F)c1', 1030),
  ('CC(C)[C@H](NC(=O)COc1cccc2ccccc12)C(=O)N[C@@H](CC(=O)O)C(=O)COc1c(-c2ccccc2)oc2ccccc2c1=O', 4670),
  ('CC(C)[C@H](NC(=O)COc1ccccc1-c1ccccc1)C(=O)N[C@@H](CC(=O)O)C(=O)COc1c(F)cc(F)cc1F', 270),
  ('C[C@H](NC(=O)COc1ccc2ccccc2c1)C(=O)NC(CC(=O)O)C(=O)COc1c(F)c(F)cc(F)c1F (some centres unmarked)', 1160),
  ('CC(C)[C@H](NC(=O)COc1cccc2ccccc12)C(=O)N[C@@H](CC(=O)O)C(=O)COc1ccc(F)c(F)c1F', 1080),
  ('CC(C)[C@H](NC(=O)COc1cccc2ccccc12)C(=O)N[C@@H](CC(=O)O)C(=O)COP(=O)(c1ccccc1)c1ccccc1', 25),
  ('CC(C)[C@H](NC(=O)COc1cccc2ccccc12)C(=O)N[C@@H](CC(=O)O)C(=O)COc1c(F)c(F)cc(F)c1F', 34),
  ('CC(C)[C@H](NC(=O)COc1cccc2ccccc12)C(=O)N[C@@H](CC(=O)O)C(=O)COc1c(F)cc(F)cc1F', 202),
  ('CC(C)[C@H](NC(=O)COc1cccc2ccccc12)C(=O)N[C@@H](CC(=O)O)C(=O)COP(=O)(Cc1ccccc1)c1ccccc1 (some centres unmarked)', 48),
  ('CC(C)C[C@H](NC(=O)COc1ccccc1-c1ccccc1)C(=O)N[C@@H](CC(=O)O)C(=O)COc1c(F)c(F)cc(F)c1F', 223);

====

Target: MCH-5 (Homo sapiens, UniProt Q14790)
Sequence (Q14790 217-374 limits assumed, species assumed): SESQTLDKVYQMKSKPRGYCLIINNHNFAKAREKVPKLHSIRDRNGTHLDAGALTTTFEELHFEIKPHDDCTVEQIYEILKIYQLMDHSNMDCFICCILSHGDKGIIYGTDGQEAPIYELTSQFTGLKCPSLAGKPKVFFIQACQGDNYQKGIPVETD
Sequence (Q14790 385-479 limits assumed, species assumed): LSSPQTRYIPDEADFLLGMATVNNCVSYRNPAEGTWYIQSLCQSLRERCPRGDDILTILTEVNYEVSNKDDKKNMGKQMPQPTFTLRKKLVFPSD
Assay: Dissociation constant Ki and irreversible rate constant k3 for irreversible inhibitors, Mch5
Assay type: biochemical
Details: continuous assay 60 min, reaction initiated by adding enzyme
Where a SMILES comes first, the peptide text is derived from it. The star is where a group is joined. Cbz = O=C(OCc1ccccc1)*; CH2F = FC*
ASSAY METRIC: MCH-5 k3/Ki

INSERT INTO measurements (molecule, data_value) VALUES
  ('CCCCCCP(=O)(OCC(=O)[C@H](CC(=O)O)NC(=O)[C@@H](NC(=O)COc1cccc2ccccc12)C(C)C)c1ccc(F)cc1 (stereo partly drawn)', '4,070 M^−1s^−1'),
  ('CC(C)C[C@H](NC(=O)COc1ccccc1-c1ccccc1)C(=O)NC(CC(=O)O)C(=O)CF (mixture of isomers)', '15,900 M^−1s^−1'),
  ('CC(NC(=O)C(NC(=O)OCc1ccccc1)C(C)C)C(=O)NC(CC(=O)O)C(=O)CF (stereo not drawn) [refer., Cbz-ValAlaAsp-CH2F, reference compound] (Cbz-Val-Ala-Asp-CH2F; configuration not given here)', '83,300 M^−1s^−1');

====

Target: mICE (Mus musculus, UniProt P29452)
Sequence (P29452 123-296 limits assumed): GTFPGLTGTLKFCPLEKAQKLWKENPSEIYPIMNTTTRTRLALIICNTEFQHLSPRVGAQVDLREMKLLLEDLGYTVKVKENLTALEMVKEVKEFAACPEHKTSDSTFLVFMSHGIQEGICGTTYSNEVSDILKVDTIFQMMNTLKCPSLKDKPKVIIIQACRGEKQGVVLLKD
Sequence (P29452 315-402 limits assumed): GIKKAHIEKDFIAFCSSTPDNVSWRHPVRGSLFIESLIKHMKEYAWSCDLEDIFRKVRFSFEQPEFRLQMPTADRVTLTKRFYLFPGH
Experiment: Dissociation constant Ki and irreversible rate constant k3 for irreversible inhibitors, ICE
Format: biochemical
Settings: continuous assay 60 min, reaction initiated by adding enzyme
Where a SMILES comes first, the peptide text is derived from it. The star is where a group is joined. Cbz = O=C(OCc1ccccc1)*; CH2F = FC*
ASSAY METRIC: mICE k3/Ki

INSERT INTO measurements (compound, assay_metric, data_value) VALUES
  ('Cc1nnc(SCC(=O)[C@H](CC(=O)O)NC(=O)[C@@H](NC(=O)COc2cccc3ccccc23)C(C)C)s1', 'mICE k3/Ki', '5,480 M^−1s^−1'),
  ('C[C@H](NC(=O)COc1ccccc1-c1ccccc1)C(=O)NC(CC(=O)O)C(=O)COc1c(F)c(F)cc(F)c1F (some centres unmarked)', 'mICE k3/Ki', '45,600 M^−1s^−1'),
  ('CC(C)C[C@H](NC(=O)COc1c(C(=O)O)ccc2ccccc12)C(=O)N[C@@H](CC(=O)O)C(=O)COP(=O)(c1ccccc1)c1ccccc1', 'mICE k3/Ki', '149,000 M^−1s^−1'),
  ('CC(C)[C@H](NC(=O)CCOc1ccccc1)C(=O)N[C@@H](CC(=O)O)C(=O)COc1c(F)c(F)cc(F)c1F', 'mICE k3/Ki', '11,400 M^−1s^−1'),
  ('CC(C)[C@H](NC(=O)COc1cccc2ccccc12)C(=O)N[C@@H](CC(=O)O)C(=O)COc1c(F)c(F)cc(F)c1F', 'mICE k3/Ki', '77,500 M^−1s^−1'),
  ('CC(C)[C@H](NC(=O)COc1cccc2ccccc12)C(=O)N[C@@H](CC(=O)O)C(=O)COc1cc(F)cc(F)c1', 'mICE k3/Ki', '2,170 M^−1s^−1'),
  ('CC(C)[C@H](NC(=O)CCOc1cccc2ccccc12)C(=O)N[C@@H](CC(=O)O)C(=O)COc1cc(C(F)(F)F)n(-c2ccccc2)n1', 'mICE k3/Ki', '4,580 M^−1s^−1'),
  ('CC(C)C[C@H](NC(=O)COc1c(C(=O)O)ccc2ccccc12)C(=O)N[C@@H](CC(=O)O)C(=O)COc1c(F)c(F)cc(F)c1F', 'mICE k3/Ki', '21,300 M^−1s^−1'),
  ('Cc1cc(OCC(=O)[C@H](CC(=O)O)NC(=O)[C@@H](NC(=O)COc2cccc3ccccc23)C(C)C)cc(=O)o1', 'mICE k3/Ki', '6,500 M^−1s^−1'),
  ('CC(C)[C@H](NC(=O)COc1cccc2ccccc12)C(=O)N[C@@H](CC(=O)O)C(=O)COc1c(F)c(F)c(F)c(F)c1F', 'mICE k3/Ki', '4,700 M^−1s^−1'),
  ('CC(NC(=O)C(NC(=O)OCc1ccccc1)C(C)C)C(=O)NC(CC(=O)O)C(=O)CF (stereo not drawn) [refer., Cbz-ValAlaAsp-CH2F, reference compound] (Cbz-Val-Ala-Asp-CH2F; configuration not given here)', 'mICE k3/Ki', '214,000 M^−1s^−1'),
  ('CC(C)[C@H](NC(=O)COc1cccc2ccccc12)C(=O)N[C@@H](CC(=O)O)C(=O)COc1cc(F)ccc1F', 'mICE k3/Ki', '12,100 M^−1s^−1'),
  ('CC(C)[C@H](NC(=O)COc1cccc2ccccc12)C(=O)N[C@@H](CC(=O)O)C(=O)COC(=O)c1c(Cl)cccc1Cl', 'mICE k3/Ki', '52,100 M^−1s^−1'),
  ('CC(C)[C@H](NC(=O)COc1cccc2ccccc12)C(=O)N[C@@H](CC(=O)O)C(=O)COc1ccccc1F', 'mICE k3/Ki', '6,020 M^−1s^−1'),
  ('CC(C)[C@H](NC(=O)COc1cccc2ccccc12)C(=O)N[C@@H](CC(=O)O)C(=O)COc1c(F)cc(F)cc1F', 'mICE k3/Ki', '20,700 M^−1s^−1'),
  ('CC(C)[C@H](NC(=O)COc1cccc2ccccc12)C(=O)N[C@@H](CC(=O)O)C(=O)COc1c(F)ccc(F)c1F', 'mICE k3/Ki', '47,100 M^−1s^−1'),
  ('O=C(O)CC(NC(=O)[C@@H]1Cc2ccccc2CN1C(=O)COc1cccc2ccccc12)C(=O)CF (mixture of isomers)', 'mICE k3/Ki', '33,500 M^−1s^−1'),
  ('CC(C)[C@H](NC(=O)COc1cccc2ccccc12)C(=O)N[C@@H](CC(=O)O)C(=O)COc1cc(F)cc(F)c1F', 'mICE k3/Ki', '14,700 M^−1s^−1'),
  ('CC(C)[C@H](NC(=O)COc1ccc2ccccc2c1)C(=O)N[C@@H](CC(=O)O)C(=O)COC(=O)c1c(Cl)cccc1Cl', 'mICE k3/Ki', '59,800 M^−1s^−1'),
  ('CC(C)[C@H](NC(=O)COc1cccc2ccccc12)C(=O)N[C@@H](CC(=O)O)C(=O)COc1ccc(F)cc1F', 'mICE k3/Ki', '8,400 M^−1s^−1'),
  ('CC(C)C(NC(=O)COc1ccccc1-c1ccccc1)C(=O)NC(CC(=O)O)C(=O)CF (centres unmarked)', 'mICE k3/Ki', '15,400 M^−1s^−1'),
  ('CC(C)[C@H](NC(=O)COc1cccc2ccccc12)C(=O)N[C@@H](CC(=O)O)C(=O)COc1cccc(F)c1F', 'mICE k3/Ki', '14,800 M^−1s^−1'),
  ('CCCCCCP(=O)(OCC(=O)[C@H](CC(=O)O)NC(=O)[C@@H](NC(=O)COc1cccc2ccccc12)C(C)C)c1ccc(F)cc1 (some centres unmarked)', 'mICE k3/Ki', '15,500 M^−1s^−1'),
  ('CC(C)[C@H](NC(=O)COc1cccc2ccccc12)C(=O)N[C@@H](CC(=O)O)C(=O)COc1ccc(F)c(F)c1F', 'mICE k3/Ki', '11,900 M^−1s^−1'),
  ('CC(C)[C@H](NC(=O)COc1cccc2ccccc12)C(=O)N[C@@H](CC(=O)O)C(=O)COn1nnc2ccccc2c1=O', 'mICE k3/Ki', '45,400 M^−1s^−1'),
  ('CC(C)[C@H](NC(=O)COc1cccc2ccccc12)C(=O)N[C@@H](CC(=O)O)C(=O)COP(C)(=O)c1ccc(F)cc1 (some centres unmarked)', 'mICE k3/Ki', '37,900 M^−1s^−1');

These data points were gathered from patent US7157430B2.
